Tested on: Klebsiella pneumoniae
experimental.details: Antibacterial activity against measured after Klebsiella pneumoniae ATCC 4352 measured after 18 to 20 hrs by microbroth dilution method
Format: functional
measurement.label: MIC
Write the quantity with the unit trailing the number.

COc1cccc(OC)c1C(=O)N[C@@H]1C(=O)N2[C@@H]1SC(C)(C)[C@@H]2C(=O)O ... 400 µM
CC(=O)OC[C@H]1O[C@@H](n2cc(COc3ccc4c(c3)OC(N)=C(C#N)C4c3ccccc3)nn2)[C@H](OC(C)=O)[C@@H](OC(C)=O)[C@@H]1OC(C)=O (some centres undefined) ... 400 µM
O=C(O)c1cn(C2CC2)c2cc(N3CCNCC3)c(F)cc2c1=O ... 1.56 µM

The record that follows has no MIC shown yet.
(Q) MIC lookup needed for COc1ccccc1C1C(C#N)=C(N)Oc2cc(OCc3cn([C@@H]4O[C@H](COC(C)=O)[C@@H](OC(C)=O)[C@H](OC(C)=O)[C@H]4OC(C)=O)nn3)ccc21 (some centres undefined) , thanks.
(A) 3.12 µM
